test system: Jurkat cells; experiment: Sirolimus (rapamycin) dose response of FKBP13 constructs stably transduced into Jurkat cells, flow cytometry; type: cell-based; settings: rapamycin; Table 14; read-out: Rapamycin EC90
Threshold 2000 nM. EC90 below it: Fulfilled. EC90 at it or above: Not fulfilled.

// below: answered molecules
* FKBP-188 (protein, Description of sequence: Construct Name: FKBP-188; Mutation(s): Q72R Q84E A117W V85R DRD M54A F78S) HCPIKSRKGDVLHAHYTGKLEDGTEFDSSLPRNQPFVSSLGTGERIKGWDQGLLGMCEGEKRKLVIPSELGYGERGWPPKIPGGATLVFEVELLKIER | Not fulfilled
* FKBP-157: FKBP13 DRD Q72R, T82W, Q84E, A117W, M54A; SEQ ID NO: 107 (protein, Description of sequence: FKBP13-AcGFP-mCherry Fusion; Construct Name: FKBP-157; FKBP13 DRD in Construct : FKBP13 (mutated to match FKBP12 active site Q72R T82W Q84E A117W) (DRD M54A)) HCPIKSRKGDVLHAHYTGKLEDGTEFDSSLPRNQPFVFSLGWGRVIKGWDQGLLGMCEGEKRKLVIPSELGYGERGWPPKIPGGATLVFEVELLKIER | Fulfilled
* FKBP-178 (protein, Description of sequence: Construct Name: FKBP-178; Mutation(s): Q72R Q84E A117W DRD M54AF78S) HCPIKSRKGDVLHAHYTGKLEDGTEFDSSLPRNQPFVSSLGTGEVIKGWDQGLLGMCEGEKRKLVIPSELGYGERGWPPKIPGGATLVFEVELLKIER | Not fulfilled
* FKBP-167: FKBP13 DRD-AcGFP construct of Table 10 (protein, Description of sequence: Construct Name: FKBP-167; Mutation(s): Q72R S79W Q84R A117W DRD M54A V85R) HCPIKSRKGDVLHAHYTGKLEDGTEFDSSLPRNQPFVFWLGTGRRIKGWDQGLLGMCEGEKRKLVIPSELGYGERGWPPKIPGGATLVFEVELLKIER | Fulfilled

Here is another molecule to look at.
Enquiry: Decide: EC90 of FKBP-168: FKBP13 DRD-AcGFP construct of Table 10 (protein, Description of sequence: Construct Name: FKBP-168; Mutation(s): Q72R T82W Q84R A117W DRD M54A V85R) HCPIKSRKGDVLHAHYTGKLEDGTEFDSSLPRNQPFVFSLGWGRRIKGWDQGLLGMCEGEKRKLVIPSELGYGERGWPPKIPGGATLVFEVELLKIER strictly below 2000 nM?
Return: Fulfilled

Every entry's value here was drawn from patent US20250186614A1.
